B1: FAM189A2 (parent)
chain: PRCDLVDLGEGKICFCCEEFQPAK

Variants of: B1
Test Name: protein stability index of a GFP-peptide fusion (GPS, HEK-293T) (PSI 1-6); higher = more stable;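 note: lentivirally expressed fusions sorted by FACS into six bins by GFP to DsRed ratio, PSI derived from sequencing read proportions per bin multiplied by bin number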
Conditions: c terminus: a fixed tail appended
# protein stability index per entry
Property Measured: protein stability index

Sequence Content | Reading
PRCDLVDPGEGKICFCCEEFQPAK [L8P] | 3.58
KRCDLVDLGEGKICFCCEEFQPAK [P1K] | 3.14
PRCDLVDLGEGSICFCCEEFQPAK [K12S] | 3.38
PRCDLVDLGEGKICFCCECFQPAK [E19C] | 3.96
PRCDLVDLGEGKICFCCQEFQPAK [E18Q] | 2.64
PRCDLVDHGEGKICFCCEEFQPAK [L8H] | 3.98
PRCDLVALGEGKICFCCEEFQPAK [D7A] | 2.61
PRCDLRDLGEGKICFCCEEFQPAK [V6R] | 3.4
PRCDLVDLGEGKICFCSEEFQPAK [C17S] | 3.5
PRCDLVMLGEGKICFCCEEFQPAK [D7M] | 1.93
PRCDLVDLGEGMICFCCEEFQPAK [K12M] | 2.04
PRCDLVDLGEGKICFCCEEFQPAC [K24C] | 3.39
HRCDLVDLGEGKICFCCEEFQPAK [P1H] | 4.03
PRCDPVDLGEGKICFCCEEFQPAK [L5P] | 3.39
PRCDLVDLGEGKICFCCEEDQPAK [F20D] | 4.05
PRCDLVDLGEGKICFCMEEFQPAK [C17M] | 2.66
PREDLVDLGEGKICFCCEEFQPAK [C3E] | 3.55
PRCDLVDLGEGKICFCCEEFQPAN [K24N] | 3.37
PRCDLVDLGEGKICFCCEEFQPPK [A23P] | 2.44
PRCDLVDLGEGKIAFCCEEFQPAK [C14A] | 3.62
PRCDLVDLGEGKICFCCNEFQPAK [E18N] | 2.78
PRCDLVDLGEGKITFCCEEFQPAK [C14T] | 3.47
